B1: LINE1-full (parent)
chain: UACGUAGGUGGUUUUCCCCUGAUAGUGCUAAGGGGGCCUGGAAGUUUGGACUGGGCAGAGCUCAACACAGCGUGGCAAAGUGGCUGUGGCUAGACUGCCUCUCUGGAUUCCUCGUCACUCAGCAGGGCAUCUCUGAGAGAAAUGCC

Variants of: B1
Assay: self-cleavage, relative activity (ratio to wild type); higher = more cleavage; in vitro, sequencing; the parent is a self-cleaving ribozyme
Use 0.4 as the dividing line for self-cleavage, with the line itself on the YES side and lower values as NO.

# residue-sequence, group-label
data = [
    ("UACGUAGGUGGCUUUCCCCUGAUAGUGCUAAGGCGGCCUGGAAGUUUGGACUGGGCAGAGCUCAACACAGCGUGGCAAAGUGGCUGUGGCUAGACUGCCUCUCUGGAUUCCUCGUCACUCAGCAGGGCAUCUCUGAGAGAAAUGCC [U12C G34C]", "YES"),
    ("UACGUAGGUGGUUUUCCCCUGAUAGUGCUAAGGUGGCCUGGAAGUUUGGACUGGGCAGAGCUCAACACAGCGUGGCAAAGUGGCUGUGGCUAGACUGCCUCUCUGGAUUCCUCGUCACUCAGCAGGGCAUCUCUGAGUGAAAUGCC [G34U A138U]", "YES"),
    ("UACGUAGGUGGUUUUCCCCUUAUAGUGCUAAGGGGGCCUGGAAGUUUGGACUGGGCAGAGCACAACACAGCGUGGCAAAGUGGCUGUGGCUAGACUGCCUCUCUGGAUUCCUCGUCACUCAGCAGGGCAUCUCUGAGAGAAAUGCC [G21U U62A]", "NO"),
    ("UGCGUAGGUGGUUUUCCCCUGAUAGUGCUAAGGGGGCCUGGAAGUUUGGACUGGGCAGAGCUCAACACAGCGUGGCAAAGUGGCUGUGGCUAGACUGCCUCUCUGGAUUCCUCGUCACUCAGCUGGGCAUCUCUGAGAGAAAUGCC [A2G A124U]", "YES"),
    ("UACGUAGGUGGUUUUCCCCUGAUAGUGCUAAGGGGGCCUGGAAGUUUGGACUGGGCAGAGCUCUACACAGCGUGGCAAAGUGGCUGUGGCUAGACUGCCUCUCUGGAUUACUCGUCACUCAGCAGGGCAUCUCUGAGAGAAAUGCC [A64U C110A]", "YES"),
]

// query Hi, just wondering whether UACGUAGGUGGUCUUCCCCUGAUAGUGCUAAGGGGGCCUGGAAGUUUGGACUGGGCAGAGCUCAACACAGCGUGGCAAAGUGGCUGUGGCUAGACUGCCUCUCUGGAUUCCUCGUCACUGAGCAGGGCAUCUCUGAGAGAAAUGCC [U13C C120G] shows self-cleavage of 0.4 or higher.
// result YES

// query Please answer likewise for UACGUAGGUGGUUUUCCCCUGAUAGUACUAAGGGGGCCUGGAAGUUUGGACUGGGCUGAGCUCAACACAGCGUGGCAAAGUGGCUGUGGCUAGACUGCCUCUCUGGAUUCCUCGUCACUCAGCAGGGCAUCUCUGAGAGAAAUGCC [G27A A57U]
// result NO

// query Further, for UACGUAGGUGGUUUUCCCCUGAUAGUGCUAAGGGGGCCUGGAAGUUUGGACUGGGCAGAGCACAACACAGCGUGGCAAAGUGGCUGUGGCUAGACUGCCUCUCUGGAUUCCUCGUCACACAGCAGGGCAUCUCUGAGAGAAAUGCC [U62A U119A] ?
// result NO

// query Can you handle UACGUAGGUGGUUUUCCCCUGAUAGUGCUAUGGGGGCCUGGAAGUUUGGACUGGGCAGAGCUCAACACAGCGUGGCAAAGUGGCUGUGGCUAGACUGCCUCUCUGGAUUCCUCGUCACACAGCAGGGCAUCUCUGAGAGAAAUGCC [A31U U119A] next?
// result YES

// query Field entry: UACGUAGGUGGUUUUCCCCUGAUAGUGCUAAGGGGGCCUGGAAGUUUGGACUGGGCAGAGCUCAUCACAGCGUGGCAAAGUGGCUGCGGCUAGACUGCCUCUCUGGAUUCCUCGUCACUCAGCAGGGCAUCUCUGAGAGAAAUGCC [A65U U87C]
// result NO

// query Repeat with UACGUAGGUGGUUUUCCCCUGAUAGUGCUAAGGGGGCCUGGAAGUUUGGACUGGGCAGAGCUCAACACAGCGUGGCAAAGUGGCUGUGGCUAGACUGCCUCUCUGGAUUCCUCGUCACUCAGCAGGGCAUGUCUGAGAGAAGUGCC [C131G A142G]
// result NO

// query Similarly, UACGUAGGUGGUUUUCCCCUGAUAGUGCUAAGGGGGCCUGGAAGUUUGGACUGGGCAGAGCUCAACACGGCGUGGCAAAGUGGCUGUGGCUAGACUUCCUCUCUGGAUUCCUCGUCACUCAGCAGGGCAUCUCUGAGAGAAAUGCC [A69G G97U] ?
// result NO

// query Item: UACGUAGGUGGUUUUCCCCUGAUAGUGCUAAGGGGGCCUGGAAGUUUGGACUGGGCAGAGCUCAACACAGCGUGGCUAAGUGGCCGUGGCUAGACUGCCUCUCUGGAUUCCUCGUCACUCAGCAGGGCAUCUCUGAGAGAAAUGCC [A77U U85C]
// result NO

// query Likewise for UACGUAGGUGGUUUUCCCCUGAUAGUGCUAAGGGGGCCUGGAAGUCUGGACUGGGCAGAGCUCAACACAGCGUGGCAAAGUGGCUGUGGCUAGACCGCCUCUCUGGAUUCCUCGUCACUCAGCAGGGCAUCUCUGAGAGAAAUGCC [U46C U96C] ?
// result NO

// query # repeat for UACGUAGGUGGUUUUCCCCUGAUUGUGCUAAGGGGGCCUGGAAGUUUGGACUGGGCAGAGCUCAACACAGCGUGGCAAAGUGGCUGUGGCUAGACUGCCUCUCUGGAUUCCUCGUCACUCAGCAGGGCAUCACUGAGAGAAAUGCC [A24U U132A]
// result YES

// query Another variant: UACGUUGGUGGUUCUCCCCUGAUAGUGCUAAGGGGGCCUGGAAGUUUGGACUGGGCAGAGCUCAACACAGCGUGGCAAAGUGGCUGUGGCUAGACUGCCUCUCUGGAUUCCUCGUCACUCAGCAGGGCAUCUCUGAGAGAAAUGCC [A6U U14C]
// result YES

// query What do you get for UACGUAGGUGGUUUUCCCCUGAUAGUGCUAAGGGGGCCUGGAAGCUUGGACUGGGCAGAGCUCAACACAGCGUGGCAAAGUGGCUGUGGCUAGACUGCCUCUCUGGAUUCUUCGUCACUCAGCAGGGCAUCUCUGAGAGAAAUGCC [U45C C111U] ?
// result YES

// query Same question for UACGUAGGUAGUUUUCCCCUGAUAGUGCUAAGGGGGCCUGGAAGUUUGGACUGGGCAGAGCUCAACACAGCGUGGCAAAGUGGCUGUGGCUAGACUGCCUCUCUGGAUUCCUCGUCACUCAGCAGGGCAUCUCCGAGAGAAAUGCC [G10A U134C] please.
// result YES

// query Same again, this time with UACGUAGGUGGUUUUCCCCUGGUAGUGCUAAGGGGGCCAGGAAGUUUGGACUGGGCAGAGCUCAACACAGCGUGGCAAAGUGGCUGUGGCUAGACUGCCUCUCUGGAUUCCUCGUCACUCAGCAGGGCAUCUCUGAGAGAAAUGCC [A22G U39A]
// result YES

// query Would you mind doing UACGUAGGUGGUUUUCCCCUGAUAGUGCUAAGGGGGCCUGGAAGUUUGGACUGGGCAGAGCUCAACACAGCGUGGCAAAGUGGCUGUGGCUAGACUGCCUCUCUGGAUUCCUCGUCACUCAGCAGGGCAUCCCUGAGAGAAACGCC [U132C U143C] as well?
// result YES

// query Now try UACGUAGGUGGUUUUCCCCUGAUAGUGCUAAGGGGGCCUGGAAGUUUGGACUGGGCAGAGCUCACCACUGCGUGGCAAAGUGGCUGUGGCUAGACUGCCUCUCUGGAUUCCUCGUCACUCAGCAGGGCAUCUCUGAGAGAAAUGCC [A65C A69U] .
// result NO

// query Lookup UACGUAGGUGGUUUUCCCCUGAUAGUGCUAAGGGGGCCUGGAAGUUUGGACUGGGCAGAGCUCAACACAGCGUGGCAAAGUGGCCGAGGCUAGACUGCCUCUCUGGAUUCCUCGUCACUCAGCAGGGCAUCUCUGAGAGAAAUGCC [U85C U87A]
// result NO
